Test protocol: binders of probe aFST on microarray, primary screen, stem cell growth factor project, biochemical, small-molecule microarray, fluorescence 635/667 (AID 1086);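 note: score merges 667 nm fluorescence with signal-to-noise of each printed compound spot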
Measurement context: higher = more signal
Measure name: composite z-score
When you answer, write just the number.

Task: Given the entry COCCCNC(=O)[C@@H]1c2ccccc2C(=O)N(C2CCCCC2)[C@H]1c1ccc(CO)cc1 , report its measured composite z-score.
Output: -0.341

Task: Given the entry Cc1ccc(S(=O)(=O)N2[C@@H](c3ccccc3)C(C(=O)O)=CC[C@H]2c2ccc(C#N)cc2)cc1 , report its measured composite z-score.
Output: 0.538

Task: Given the entry CCCCNC(=O)c1ccc(C#C[Si](C)(C)C)c(OC(C)=O)c1 , report its measured composite z-score.
Output: -0.0501

Task: Given the entry COC(=O)Cn1c(C(=O)N(C)C)cc2c1C[C@H]1CN(C(=O)c3ccccc3)[C@@](Cc3ccc(OC)cc3)(C(=O)OC)[C@@H]21 , report its measured composite z-score.
Output: 0.513

Task: Given the entry C=C(CCCC)C(=O)CC[C@H](OC(=O)c1cccnc1)c1ccc(CO)o1 , report its measured composite z-score.
Output: 0.606

Next:
Task: Given the entry CC#CCO[Si](C#CCCCCCC)(C(C)C)C(C)C , report its measured composite z-score.
Output: -1.3

Task: Given the entry C=CCNC(=O)[C@@H]1[C@H]2C(=O)O[C@H](c3ccccc3)[C@H](c3ccccc3)N2[C@H](c2ccccc2OCCO)[C@@]12C(=O)N(C(=O)OCCOC)c1ccc(C#CCCO)cc12 , report its measured composite z-score.
Output: -0.66

Task: Given the entry C=CCC(OC(C)=O)[C@@H]1[C@@H](N(Cc2cccc3ccccc23)C(=O)c2ccc(C)cc2)c2cc(OCCCO)ccc2N1C(=O)c1ccc2ccccc2n1 (stereo partly drawn) , report its measured composite z-score.
Output: 0.223

---

Test protocol: small-molecule binders of probe aNOTCH2, primary screen, biochemical, small-molecule microarray, 635/667 nm fluorescence (AID 1121);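 note: score merges feature fluorescence read at 667 nm with its signal to noise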
Measurement context: higher = more signal
Measure name: composite z-score
When you answer, write just the number.

# example entries with known answers
Task: Given the entry C=C(C(=O)CC[C@@H](OC(C)=O)c1cccc(OCCO)c1)C(C)C , report its measured composite z-score.
Output: -0.148

Task: Given the entry O=C1NC(=O)C2C1C=CC(C(O)c1ccc(F)cc1)N2Nc1ccccn1 (stereo not given) , report its measured composite z-score.
Output: -0.0771

Task: Given the entry CC(C)=CCN(C(=O)C#Cc1ccccc1)[C@H](CO)c1ccccc1 , report its measured composite z-score.
Output: -0.0883

Task: Given the entry CC(C)C[C@@H]1NC(=O)[C@@H]2C[C@H](C(=O)O)[C@H](c3ccc(O)cc3)N2C1=O , report its measured composite z-score.
Output: -0.106

Next:
Task: Given the entry CCCC[C@H]1OB(O)C[C@H]2C1=C(C)C[C@H]1C(=O)C=CC(=O)[C@H]12 , report its measured composite z-score.
Output: -0.106

---

Examples of molecules with documented composite z-score follow.
Experimental system: Neurogenic locus notch homolog protein 2 (Homo sapiens)
Test protocol: Notch2 binders on small-molecule microarrays, primary screen, biochemical, small-molecule microarray, 635 nm fluorescence, stem cell growth factors (AID 1073)
Measurement context: Notch2 binding, higher = more signal
When you answer, write just the number.

# example entries with known answers
Task: Recall the recorded composite z-score for COc1cccc(C[C@H]2C[C@@H](CO[Si](C(C)C)(C(C)C)C(C)C)N3C(=O)[C@@]4(C(C)=O)O[C@@]23[C@@H]2C(=O)N(C)C(=O)[C@@H]24)c1 with Neurogenic locus notch homolog protein 2 (Homo sapiens) and state it.
Output: 1.16

Task: Recall the recorded composite z-score for Cc1ccc(S[C@]2(C(=O)NCCN3CCOCC3)CC(=O)N(C3CCCCC3)[C@@H]2c2ccc(CO)cc2I)cc1 with Neurogenic locus notch homolog protein 2 (Homo sapiens) and state it.
Output: 0.955

Task: Recall the recorded composite z-score for CO[C@H]1O[C@H](CO)[C@@H](OC(=O)Nc2ccc3c(c2)OCO3)[C@@H]2OC(=O)[C@@H](Cc3ccccc3)C/C=C/C[C@H](Cc3ccccc3)C(=O)O[C@@H]12 with Neurogenic locus notch homolog protein 2 (Homo sapiens) and state it.
Output: 1.12

Task: Recall the recorded composite z-score for O=C1c2ccccc2[C@](Cc2ccccc2I)(C(=O)O)[C@H](c2ccc(CO)cc2)N1Cc1ccccc1 with Neurogenic locus notch homolog protein 2 (Homo sapiens) and state it.
Output: 0.19

Task: Recall the recorded composite z-score for COc1ccc(CC[C@H](O)c2cccc(OCC(=O)OC(C)(C)C)c2)cc1 with Neurogenic locus notch homolog protein 2 (Homo sapiens) and state it.
Output: 0.966

Next:
Task: Recall the recorded composite z-score for NCCCC[C@@H]1NC(=O)[C@H]2C[C@@H](C(=O)NCc3ccc(F)cc3)[C@@H](c3ccc(O)cc3)N2C1=O with Neurogenic locus notch homolog protein 2 (Homo sapiens) and state it.
Output: 0.531

---

Experimental system: Fibroblast growth factor 2 (Homo sapiens)
Test protocol: FGF2 binders on small-molecule microarrays, primary screen, biochemical, small-molecule microarray, 635/667 nm fluorescence (AID 1133)
Measurement context: small-molecule microarray binding, FGF2, fluorescence 635/667; higher = more signal
Examples of compounds with documented composite z-score follow.
When you answer, write just the number.

Task: Given the entry C[C@@H](OCc1ccccc1)C1NC(=O)[C@@]23C(=O)N[C@@H](Cc4ccccc4)C2[C@H](C)[C@@]2(C)O[C@H]2C3/C=C/C/C=C\CNC(=O)[C@H](Cc2ccccc2)NC1=O (some centres undefined) , report its measured composite z-score.
Output: 0.803

Task: Given the entry CC(C)C[C@H]1NC(=O)[C@H](Cc2ccccc2)NC(=O)[C@@]23C(=O)N[C@@H](Cc4ccccc4)C2[C@H](C)[C@@]2(C)O[C@H]2C3/C=C/C/C=C\CNC1=O (some centres undefined) , report its measured composite z-score.
Output: 1.01

Task: Given the entry CCOC(=O)C1=CC[C@@H](c2ccc(F)cc2)N(S(=O)(=O)c2ccc(C)cc2)[C@H]1c1ccc([N+](=O)[O-])cc1 , report its measured composite z-score.
Output: -0.218

Task: Given the entry CC(C)C[C@@H]1NC(=O)[C@@]23C(=O)N[C@@H](Cc4ccccc4)C2[C@H](C)[C@@]2(C)O[C@H]2C3/C=C/C/C=C\CNC(=O)[C@@H](CC(C)C)NC1=O (some centres undefined) , report its measured composite z-score.
Output: 0.963

Task: Given the entry C=CCC(OC(C)=O)[C@@H]1[C@@H](N(Cc2ccc(-c3cccc(C(F)(F)F)c3)o2)C(=O)Cc2ccc(F)cc2)c2cc(OCCCO)ccc2N1C(=O)c1ccc2ccccc2n1 (some centres undefined) , report its measured composite z-score.
Output: -0.0898

Turning to the following compound.
Task: Given the entry CC(C)C[C@@H]1NC(=O)[C@@H]2C[C@H](C(=O)O)[C@H](c3ccc(O)cc3)N2C1=O , report its measured composite z-score.
Output: 1.49

---

Examples of molecules with documented composite z-score follow.
Experimental system: Torsin-1A-interacting protein 1 (Homo sapiens) (UniProt Q5JTV8)
Sequence (Q5JTV8 whole entry, looked up): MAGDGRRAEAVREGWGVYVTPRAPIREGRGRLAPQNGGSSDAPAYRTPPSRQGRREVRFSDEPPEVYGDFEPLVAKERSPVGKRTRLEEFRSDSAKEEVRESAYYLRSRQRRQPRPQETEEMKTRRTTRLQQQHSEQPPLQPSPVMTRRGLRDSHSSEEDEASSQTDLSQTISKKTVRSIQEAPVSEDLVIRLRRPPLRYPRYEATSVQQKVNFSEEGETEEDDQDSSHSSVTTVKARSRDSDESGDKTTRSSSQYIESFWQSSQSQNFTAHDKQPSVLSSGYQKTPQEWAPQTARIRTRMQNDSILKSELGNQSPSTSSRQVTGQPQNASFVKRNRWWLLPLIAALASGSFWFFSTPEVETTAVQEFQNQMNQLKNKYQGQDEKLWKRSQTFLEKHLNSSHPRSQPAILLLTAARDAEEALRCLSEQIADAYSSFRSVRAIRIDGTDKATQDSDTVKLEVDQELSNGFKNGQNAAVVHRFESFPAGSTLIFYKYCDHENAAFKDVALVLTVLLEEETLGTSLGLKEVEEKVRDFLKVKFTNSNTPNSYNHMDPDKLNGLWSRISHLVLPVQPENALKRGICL
Test protocol: LAP1 binders from COS7 cell lysate, primary screen, small-molecule microarray, 635/667 nm fluorescence (AID 1116)
Measurement context: COS7-hLAP1 lysate binding, 635 nm fluorescence, higher = more signal
When you answer, write just the number.

# example entries with known answers
Task: Given the entry COC(=O)[C@@]1(Cc2ccc(F)cc2)[C@H]2c3cc(C(=O)N(C)C)n(CCn4cc([N+](=O)[O-])nc4C)c3C[C@H]2CN1C(=O)c1ccccc1 , report its measured composite z-score.
Output: 1.49

Task: Given the entry CCCCNC(=O)c1ccc(C#C[Si](C)(C)C)c(OC(C)=O)c1 , report its measured composite z-score.
Output: 0.37

Task: Given the entry C=CCC(OC(C)=O)[C@@H]1[C@@H](N(Cc2ccc(-c3cccc(C(F)(F)F)c3)o2)C(=O)Cc2ccc(F)cc2)c2cc(OCCCO)ccc2N1C(=O)c1ccc2ccccc2n1 (some centres not stated) , report its measured composite z-score.
Output: 0.0265

Next:
Task: Given the entry Cc1c(-c2ccc(-c3ccc(Cl)c(Cl)c3)o2)nc(-c2ccccc2)c2c1CO[Si]2(C(C)C)C(C)C , report its measured composite z-score.
Output: 0.125

Task: Given the entry C=CCN1C(=O)[C@]2(O[C@H](CCn3cc([C@H](O)c4ccccc4)nn3)[C@@H]([Si](C)(C)c3ccc(OC)cc3)[C@@H]2C)c2cc(N3C(=O)c4cccc5cccc3c45)ccc21 , report its measured composite z-score.
Output: 0.404

Task: Given the entry O=C1NC(=O)C2C1C=CC(C(O)c1cccc(O)c1)N2Nc1ccc(Cl)cc1Cl (configuration not stated) , report its measured composite z-score.
Output: -0.369

Task: Given the entry Cc1ccc(S(=O)(=O)N2[C@@H](c3ccccc3)C(C(=O)O)=CC[C@H]2c2ccc(C#N)cc2)cc1 , report its measured composite z-score.
Output: 1.84

Values from PubChem BioAssay
